All figures here come from PubChem BioAssay (NCI).

Consider the following compounds; for each one, report its growth.
System: A549/ATCC NSCLC
assay.text: NCI-60 one-dose screen, 48 h (100 = growth as untreated, 0 = no growth, -100 = all killed)
study.conditions: 10 µM unless noted
The panel holds about 83,000 compounds, 20% with a hit somewhere; the sample as a whole holds those more often. Calls of active or inactive are those of the source. How the source made its calls: active means growth percent below 10; inactive means the rest.

Entry `CCCCS(=O)(=O)Cl` : reported growth = ?
109% (inactive)

Entry `C[C@]12CCc3sc(Nc4ccc(OC(F)(F)F)cc4)nc3C1=CC[C@@H]1[C@@H]2CC[C@]2(C)C(=O)CC[C@@H]12` : reported growth = ?
67% (inactive)

Entry `CC/C(Cc1ccccc1)=C(\c1ccc(OCCN2CCCC2)cc1)c1ccc(OC(=O)NCc2ccccc2)cc1` : reported growth = ?
42.4% (inactive)

Entry `N[C@@H](CCC(=O)CCl)C(=O)O` : reported growth = ?
102% [20 µM] (inactive)

Entry `N#CC(NC(=O)CCl)=C(Cl)Cl` : reported growth = ?
66.8% (inactive)

Entry `COc1ccn(C)c(=O)c1C#N` : reported growth = ?
83.7% (inactive)

Entry `Nc1ccc(S(=O)(=O)F)cc1` : reported growth = ?
102% (inactive)

Entry `C/C(=C(\c1ccc(OCCN2CCOCC2)cc1)c1ccc(OC(=O)Cc2ccccc2)cc1)c1ccc(Cl)cc1` : reported growth = ?
90.4% (inactive)

Entry `Cc1ccc(S(=O)(=O)n2cc([C@@]3(O)C[C@H](CSC#N)OC3=O)c3ccccc32)cc1` : reported growth = ?
70.6% (inactive)

Entry `CO[C@@H]([CH2][Hg][O]C(=O)c1ccccc1)[C@@H]([CH2][Hg][O]C(=O)c1ccccc1)OC` : reported growth = ?
95.6% (inactive)

Entry `CC(C)CCC1C(=O)NC(=O)NC1=O` : reported growth = ?
78.5% (inactive)

Entry `Cc1ccc(N2CCN(CCC#N)CC2)cc1` : reported growth = ?
88.5% (inactive)

Entry `COc1cc(-c2ccc(N)c(OC)c2)ccc1N` : reported growth = ?
108% (inactive)

Entry C=CCOC(=O)C(Br)CC (centres undefined) : reported growth = ?
107% (inactive)

* * *

System: SF-539 CNS
assay.text: NCI-60 one-dose screen, 48 h (100 = growth as untreated, 0 = no growth, -100 = all killed)
study.conditions: 10 µM unless noted
Compounds without any hit were thinned out: in the full panel of roughly 83,000, 20% have a hit.
quantity.measured: growth (%)
The figure you give is taken to be in %; do not add the unit.

Entry `C=CC[PH+](c1ccccc1)c1ccccc1.C=CC[PH+](c1ccccc1)c1ccccc1.[Pt+2].[S-]c1ncccn1.[S-]c1ncccn1` : reported growth = ?
60.2

Entry `Cc1c2ccncc2c(C)c2c1[nH]c1ccccc12` : reported growth = ?
-93.6

Entry `C[C@]12CCc3sc(Nc4ccc(OC(F)(F)F)cc4)nc3C1=CC[C@@H]1[C@@H]2CC[C@]2(C)C(=O)CC[C@@H]12` : reported growth = ?
-5.4

Entry `CC/C(Cc1ccccc1)=C(\c1ccc(OCCN2CCCC2)cc1)c1ccc(OC(=O)NCc2ccccc2)cc1` : reported growth = ?
59

Entry COc1cc(C2C3=C(CCCC3=O)N(CCO)c3cc4c(cc32)CCC4)cc(OC)c1OC (configuration not stated) : reported growth = ?
106

Entry `CC1=C(C)C(=O)O[C@@H]([C@](C)(O)[C@]2(O)CC[C@@]3(O)[C@@H]4C[C@H]5O[C@]56CC=CC(=O)[C@]6(C)[C@H]4CC[C@]23C)C1` : reported growth = ?
-10.1

Entry `CCOC(=O)P(=O)(OCC)OCC` : reported growth = ?
106

Entry `CC1(C)N=C(N)N=C(N)N1c1ccc(CCC(=O)Nc2ccc(S(=O)(=O)F)cc2)cc1` : reported growth = ?
28.7

Entry COc1c(O)cc2c(c1OC)-c1ccc(SC)c(=O)cc1C(NC(C)=O)CC2 (configuration not stated) : reported growth = ?
-15

Entry `CCC(Br)(CC)C(=O)NC(N)=O` : reported growth = ?
89.9

Entry `COc1ccc(N)cc1OC` : reported growth = ?
110

Entry CCCN1C(=O)NC(=O)C(CC)(N2C(=O)c3c(F)c(F)c(F)c(F)c3C2=O)C1=O (configuration not stated) : reported growth = ?
-96.7
